target: hPDE4; experiment: hPDE4 enzyme inhibition; settings: read-out: IC50 against hPDE4
reported-property: IC50 (nM)
Give just the numeric value; nM need not be written.

Inquiry: So what's the measured IC50 for this one? COc1ccc([C@]2(C#N)CC[C@@H](C(=O)O)CC2)cc1OCc1ccccc1 [Compound 7]
Reply text: 540

meta.source: paper PMC4155488
